Where these numbers come from: PubChem BioAssay AID602474

Target: Luciferin 4-monooxygenase (Photinus pyralis)
Experiment: FLuc inhibitory activity for the follow-up compounds in a biochemical assay with a commercial detection reagent - BriteliteTM Plus (PerkinElmer)
Conditions: purified FLuc, Britelite Plus luminescence; series mostly up to 38.3 µM
Excerpt: NCGC Assay Overview: Firefly (Photinus pyralis) luciferase is one of the most commonly used transcriptional reporters. It is considered one of the more dynamically responsive reporters - that is, responsive to changes in reporter transcription - as it requires no post-translational modifications and is enzymatically active directly after protein synthesis (Wood, 1998). […]
Records with an inconclusive call do not appear. Active and inactive are the calls of the source. Calls come from the whole dose curve; as a rule, active = well fitted inhibition curve with a large enough effect; inconclusive = small, poorly fitted or top-dose-only effect; inactive = no such curve, though single readings can be large or run the other way.
value-type: Potency

* Cc1ccc(S(=O)(=O)N2CCN(C(=O)c3ccccc3-c3nc4ccccc4s3)CC2)c(C)c1 | inactive
* COc1ccccc1C(=O)Nc1ccc(C(=O)O)cc1 | inactive
* CC(C)C(=O)Nc1cccc(C(=O)Nc2ccccc2C(=O)O)c1 | 17900 nM (active)
* O=C(Nc1ccccc1C(=O)O)c1cc(S(=O)(=O)Nc2ccccc2)ccc1Cl | inactive
* COc1ccc(-c2nc3ccccc3s2)cc1O | 711 nM (active)
* CC(C)c1ccc(C(=O)Nc2ccc(-c3nc4ccccc4s3)c(Cl)c2)cc1 | inactive
* CC(C)c1ccc(-c2nc3ccccc3s2)cc1 | 22.5 nM (active)
* Cc1ccc(C(=O)Nc2cccc(C(=O)O)c2)cc1 | 2000 nM (active)
* Cc1cccc(C(=O)Nc2ccc(-c3nc4ccccc4s3)cc2Cl)c1 | inactive
* O=C(O)c1cccc(NC(=O)c2cccc(S(=O)(=O)N3CCc4ccccc43)c2)c1 | inactive
* O=C(O)c1ccc(NC(=O)c2cc(S(=O)(=O)N3CCCCC3)c(Cl)cc2Cl)cc1 | inactive
* O=C(Nc1ccccc1-c1nc2ccccc2s1)c1cccnc1 | inactive
* COc1ccc2nc(NC(=O)c3ccco3)sc2c1 | 1590 nM (active)
* COc1ccc(NS(=O)(=O)c2cccc(C(=O)Nc3ccccc3C(=O)O)c2)cc1 | inactive
* O=C(Nc1ccccc1C(=O)O)c1cccc(NC(=O)c2ccccc2Br)c1 | inactive
* O=C(COC(=O)c1ccccc1[N+](=O)[O-])c1ccc2c(c1)OCO2 | 17.9 nM (active)
* Nc1ccc(-c2nc3ccc(C(=O)O)cc3s2)cc1 | 634 nM (active)
* Cc1ccc(NS(=O)(=O)c2ccc(Cl)c(C(=O)Nc3cccc(C(=O)O)c3)c2)cc1 | inactive
* O=C(O)c1cccc(NC(=O)c2ccccc2NC(=O)c2ccccc2F)c1 | inactive
* O=C(Cc1ccccc1)Nc1ccccc1C(=O)Nc1ccc(C(=O)O)cc1 | inactive
* O=C(Nc1ccccc1C(=O)O)c1cc(S(=O)(=O)NCc2ccccc2)ccc1Cl | inactive
* O=C(O)c1cccc(NC(=O)c2ccc(S(=O)(=O)c3ccccc3)cc2)c1 | inactive
* Nc1ccc(C(=O)Nc2ccccc2C(=O)O)cc1 | 11300 nM (active)
* Nc1cccc(-c2nc3ccc(N)cc3s2)c1 | 798 nM (active)
* COc1ccc2nc(NC(=O)c3ccc4ncsc4c3)sc2c1 | 25200 nM (active)
